- tested_system: pooled human IgG (human IgG1, 2, 3 and 4)
measured_parameter: Enzyme Activity Endpoint Assay (purified): Fc (ng/µL)
Please state the figure in ng/µL; there is no need to write the unit.

Below, each entry is followed by its recorded Enzyme Activity Endpoint Assay (purified): Fc result.
protein	recorded_measurement
PRT-633 (protein) MQITSVWTKGVTPLTPEQFTNNNEDVIHAPYKANQGWYDITKAFDGKDNLLCGAATAGNMLHWWFDQNKTEIEAYLSKHPEKQKIIFNNQELFDLKAAIDTKDSQTNSQLFNYFRDKAFPNLSARQLGVMPDLVLDMFINGYYLNVFKTQSTDVNRPYQDKDKRGGIFDAVFTRGDQTTLLTARHDLKNKGLNDISTIIKQELTEGKALALSHTYANVSISHVINLWGADFNAEGNLEAIYVTDSDANASIGMKKYFVGINAHGHVAISAKKIEGENIGAQVLGLFTLSSGKDIWQKLSLEHHHHHH	429
PRT-383 (protein) MVTSVWTKGVTPPTNFTYGEDVLHAPYVANQGWYDITKTFNGKDDLLCGAATAGNMLHWWFDQNKEQIENYLKKHPEKQKINFNGEQMFDVKEAIDTKDSQLDSKLFDYFKEKAFPYLSTKHLGVFPDHVIDMFINGYRLSLTNHGPTPVKRGSKDPRGGIFDAVFTRGDQSKLLTNRHDFKEKTLKEISDLIKQELTEGKALGISHTYANVRINHVINLWGADFDAEGNLEAIYVTDSDSNASIGMKKYFVGVNSNGKVAISAKEIEEDNIGAQVLGLFTLSTGQDIWNQTN	379
PRT-421 (protein) MTITSVWTKGVTPPTPEDFRYNNEDVLHAPYVANQGWYDITKTFDGKDNLLCGAATAGNMLHWWFDQNKEEIERYLKKHPEKQKIIFNNQELFDVKAAIDTKDSQTNSKLFDYFRDKAFPNLSARQLGVMPDLVLDMFINGYYLNLGKTQSTDVNRPYQDKDKRGGIFDAVFTRGDQTTLLTARHDLKNKGLNEISDLIKQELTEGKALALSHTYANVRINHVINLWGADFDAEGNLIAIYVTDSDANASIGMKKYFVGVNANGKVAISAKKIEGDNIGAQVLGLFTLSTGQDIWQKLS	340
PRT-643 (protein) MQITSVWTKGVTPLTPEQFRYNNEDVIHAPYLAHQGWYDITKAFDGKDNLLCGAATAGNMLHWWFDQNKTEIEAYLSKHPEKQKIIFNNQELFDLKAAIDTKDSQTNSQLFNYFRDKAFPNLSARQLGVMPDLVLDMFINGYYLNVFKTQSTDVNRPYQDKDKRGGIFDAVFTRGDQTTLLTARHDLKNKGLNDISTIIKQELTEGRALALSHTYANVSISHVINLWGADFNAEGNLEAIYVTDSDANASIGMKKYKVGYNKDGRVAISAYKIEGENIGAQVLGLFTLSSGKDIWQKLSLEHHHHHH	409
PRT-577 (protein) MANQEIRYSKATPSTITSVWTKGVTPPENFIYNEDVLHAPYLANQGWYDITKTFNGKDDLLCGAATAGNMLHWWFDQNKEQIERYLKEHPEKQKINFNGEQMFDVKEAIDTKDSQTNSKLFEYFKDKAFPYLSTKHLGVFPDHVIDMFINGYRLSLTNHGPTPVKEQTKDPRGGIFDAVFTRGDQSKLLTSRHDFKEKTLNEISQLIKQELTEGKALGLSHTYANVRINHVINLWGADFNAEGNLEAIYVTDSDSNASIGMKKYYVGVNSAGKVAISAKEIEGDNIGAQVLGLFTLSTGQDIWQQTNLEHHHHHH	338

For the protein shown here, PRT-413 (protein) MTITSVWTKGVTPPTPEDFRENNEDVLHAPYVANQGWYDITKTFDGKDNLLCGAATAGNMLHWWFDQNKEEIERYLKKHPEKQKIIFNNQELFDVKAAIDTKDSQTNSKLFNYFRDKAFPNLSARQLGVMPDLVLDMFINGYYLNLGKTQSTDVNRPYQDKDKRGGIFDAVFTRGDQTTLLTARHDLKNKGLNEISDLIKQELTEGKALALSHTYANVRINHVINLWGADFDAEGNLIAIYVTDSDANASIGMKKYFVGVNANGKVAISAKKIEGDNIGAQVLGLFTLSTGQDIWQKLS , give the reported Enzyme Activity Endpoint Assay (purified): Fc. 347

Which Enzyme Activity Endpoint Assay (purified): Fc is reported for this protein? PRT-681 (protein) MQITSVWTKGVTPLTPEQFRYNNEDVIHAPYLAHQGWYDITKAFDGKDNLLCGAATAGNMLHWWFDQNKTEIEAYLSKYPEKQKIIFNNQELFDLRAAINTKDSQTNSQLFNYFRDKAFPNLSARQLGVMPDLVLDMFINGYYLNVFKTQSTDVNRPYQDKDKRGGIFDAVFTRGDQTTLLTARHDLKNKGLNDISTIIKQELTEGRALALSHTYANVSISHVINLWGADFNAEGNLEAIYVTDSDANASIGMKKYYVGINAHGHVAISAKKIEGENIGAQVLGLFTLSSGKEIWQKLSLEHHHHHH 492

So what does the record say about Enzyme Activity Endpoint Assay (purified): Fc for PRT-469 (protein) MVTSVWTKGVTPPTDFIKGEDVFHAPYKAGQGWYDITKAFDGGDDLLCGAATAGNMLHWWFDQNKDQIERYLKEHPEKQKINFNGEQMFDVKEAIDTKDSQTNSELFNYFKEKAFPYLSTKHLGVFPDHVLDMFINGYRLSLTNHGPTPVKRQEKDPRGGIFDAVFGRGDQTKLLTSRHDLKNKTLKEISDLIKQELTEGKALGLSHTYANVRINHVINLWGADFDSEGNLKAIYVTDSDSNASIGMKKYFVGVNSAGKVAISAKEIKEDNIGAQVLGLFTLSTGQKIWNKTNLEHHHHHH ? 139

Data credit: patent US20250027068
